# target.under.test: plasma purified human complement protein C3 (human) (UniProt P01024)
# Sequence (P01024 23-667, chain 1 of 2): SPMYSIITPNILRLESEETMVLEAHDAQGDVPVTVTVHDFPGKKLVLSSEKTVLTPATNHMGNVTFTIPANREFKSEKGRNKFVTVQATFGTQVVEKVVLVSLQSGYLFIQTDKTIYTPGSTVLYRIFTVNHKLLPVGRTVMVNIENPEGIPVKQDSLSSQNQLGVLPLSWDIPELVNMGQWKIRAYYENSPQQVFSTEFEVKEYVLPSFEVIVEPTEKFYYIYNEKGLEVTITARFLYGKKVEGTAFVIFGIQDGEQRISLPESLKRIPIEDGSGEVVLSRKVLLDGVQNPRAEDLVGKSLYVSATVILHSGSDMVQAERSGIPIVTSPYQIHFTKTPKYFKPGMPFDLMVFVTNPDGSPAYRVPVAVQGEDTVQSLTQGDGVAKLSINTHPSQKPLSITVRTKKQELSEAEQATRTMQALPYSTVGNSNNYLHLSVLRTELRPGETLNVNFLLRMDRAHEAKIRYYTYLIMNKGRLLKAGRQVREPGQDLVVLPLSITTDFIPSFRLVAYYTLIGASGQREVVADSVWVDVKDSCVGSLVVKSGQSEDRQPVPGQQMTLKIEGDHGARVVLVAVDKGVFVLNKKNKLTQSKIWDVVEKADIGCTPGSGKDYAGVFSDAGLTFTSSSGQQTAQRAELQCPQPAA
# Sequence (P01024 672-1663, chain 2 of 2): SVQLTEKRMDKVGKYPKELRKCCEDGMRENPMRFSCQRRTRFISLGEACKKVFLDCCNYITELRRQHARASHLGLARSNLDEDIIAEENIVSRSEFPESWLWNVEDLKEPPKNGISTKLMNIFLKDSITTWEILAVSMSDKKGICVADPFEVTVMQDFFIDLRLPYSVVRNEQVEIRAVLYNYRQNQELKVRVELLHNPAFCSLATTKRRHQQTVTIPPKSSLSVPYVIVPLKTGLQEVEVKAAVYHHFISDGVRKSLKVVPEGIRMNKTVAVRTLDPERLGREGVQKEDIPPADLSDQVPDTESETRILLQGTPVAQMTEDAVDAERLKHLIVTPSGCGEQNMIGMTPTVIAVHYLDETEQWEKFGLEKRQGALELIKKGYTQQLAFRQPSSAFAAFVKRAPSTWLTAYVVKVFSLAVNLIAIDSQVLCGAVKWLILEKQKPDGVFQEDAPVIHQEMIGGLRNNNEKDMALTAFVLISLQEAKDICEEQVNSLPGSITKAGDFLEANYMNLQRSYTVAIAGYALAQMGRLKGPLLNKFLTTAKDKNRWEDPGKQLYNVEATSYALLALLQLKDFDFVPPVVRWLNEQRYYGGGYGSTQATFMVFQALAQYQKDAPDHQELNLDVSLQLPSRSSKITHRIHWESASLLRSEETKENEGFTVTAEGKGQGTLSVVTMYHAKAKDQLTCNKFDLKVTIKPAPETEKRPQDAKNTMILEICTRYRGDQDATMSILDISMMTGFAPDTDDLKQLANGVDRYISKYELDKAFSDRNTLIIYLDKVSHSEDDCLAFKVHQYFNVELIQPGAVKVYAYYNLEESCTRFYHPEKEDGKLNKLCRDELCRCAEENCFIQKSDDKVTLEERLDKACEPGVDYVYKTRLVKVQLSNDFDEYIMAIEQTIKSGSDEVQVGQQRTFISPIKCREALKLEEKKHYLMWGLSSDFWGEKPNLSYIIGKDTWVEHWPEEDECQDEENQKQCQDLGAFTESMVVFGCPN
# run.description: cell-based or functional assay
In this section we review reported EC50 hC3 cleavage values for a set of binders.
Give the number; nM is assumed, so skip it.

Recorded results for 2 binders are shown here.
- MTSP-1 protease domain I41S/Y59F/F97Y/ins97aV/C122S/Q192G (enzyme) VVGGTDADEGEWPWQVSLHALGQGHSCGASLISPNWLVSAAHCFIDDRGFRYSDPTQWTAFLGLHDQSQRSAPGVQERRLKRIISHPFFNDYVTFDYDIALLELEKPAEYSSMVRPISLPDASHVFPAGKAIWVTGWGHTQYGGTGALILQKGEIRVINQTTCENLLPQQITPRMMCVGFLSGGVDSCGGDSGGPLSSVEADGRIFQAGVVSWGDGCAQRNKPGVYTRLPLFRDWIKENTGV: 29.1
- MTSP-1 protease domain I41S/ins97aV/C122S/N164D/Q192G/R235L (enzyme) VVGGTDADEGEWPWQVSLHALGQGHSCGASLISPNWLVSAAHCYIDDRGFRYSDPTQWTAFLGLHDQSQRSAPGVQERRLKRIISHPFFNDFVTFDYDIALLELEKPAEYSSMVRPISLPDASHVFPAGKAIWVTGWGHTQYGGTGALILQKGEIRVIDQTTCENLLPQQITPRMMCVGFLSGGVDSCGGDSGGPLSSVEADGRIFQAGVVSWGDGCAQRNKPGVYTRLPLFLDWIKENTGV: 49.7

// EC50 hC3 cleavage value for MTSP-1 protease domain I41E/F97V/F99L/C122S/Q175L/Q192S/D217H (enzyme) VVGGTDADEGEWPWQVSLHALGQGHECGASLISPNWLVSAAHCYIDDRGFRYSDPTQWTAFLGLHDQSQRSAPGVQERRLKRIISHPFFNDVTLDYDIALLELEKPAEYSSMVRPISLPDASHVFPAGKAIWVTGWGHTQYGGTGALILQKGEIRVINQTTCENLLPQLITPRMMCVGFLSGGVDSCSGDSGGPLSSVEADGRIFQAGVVSWGHGCAQRNKPGVYTRLPLFRDWIKENTGV : 44.3
